MEASURED_ON: intracellular phosphorylation of EGFR (Tyr1068) in PC-9 cells (Homo sapiens, UniProt P00533, DEL746-750)
Sequence (P00533 with tags, fused parts or gaps DEL746-750): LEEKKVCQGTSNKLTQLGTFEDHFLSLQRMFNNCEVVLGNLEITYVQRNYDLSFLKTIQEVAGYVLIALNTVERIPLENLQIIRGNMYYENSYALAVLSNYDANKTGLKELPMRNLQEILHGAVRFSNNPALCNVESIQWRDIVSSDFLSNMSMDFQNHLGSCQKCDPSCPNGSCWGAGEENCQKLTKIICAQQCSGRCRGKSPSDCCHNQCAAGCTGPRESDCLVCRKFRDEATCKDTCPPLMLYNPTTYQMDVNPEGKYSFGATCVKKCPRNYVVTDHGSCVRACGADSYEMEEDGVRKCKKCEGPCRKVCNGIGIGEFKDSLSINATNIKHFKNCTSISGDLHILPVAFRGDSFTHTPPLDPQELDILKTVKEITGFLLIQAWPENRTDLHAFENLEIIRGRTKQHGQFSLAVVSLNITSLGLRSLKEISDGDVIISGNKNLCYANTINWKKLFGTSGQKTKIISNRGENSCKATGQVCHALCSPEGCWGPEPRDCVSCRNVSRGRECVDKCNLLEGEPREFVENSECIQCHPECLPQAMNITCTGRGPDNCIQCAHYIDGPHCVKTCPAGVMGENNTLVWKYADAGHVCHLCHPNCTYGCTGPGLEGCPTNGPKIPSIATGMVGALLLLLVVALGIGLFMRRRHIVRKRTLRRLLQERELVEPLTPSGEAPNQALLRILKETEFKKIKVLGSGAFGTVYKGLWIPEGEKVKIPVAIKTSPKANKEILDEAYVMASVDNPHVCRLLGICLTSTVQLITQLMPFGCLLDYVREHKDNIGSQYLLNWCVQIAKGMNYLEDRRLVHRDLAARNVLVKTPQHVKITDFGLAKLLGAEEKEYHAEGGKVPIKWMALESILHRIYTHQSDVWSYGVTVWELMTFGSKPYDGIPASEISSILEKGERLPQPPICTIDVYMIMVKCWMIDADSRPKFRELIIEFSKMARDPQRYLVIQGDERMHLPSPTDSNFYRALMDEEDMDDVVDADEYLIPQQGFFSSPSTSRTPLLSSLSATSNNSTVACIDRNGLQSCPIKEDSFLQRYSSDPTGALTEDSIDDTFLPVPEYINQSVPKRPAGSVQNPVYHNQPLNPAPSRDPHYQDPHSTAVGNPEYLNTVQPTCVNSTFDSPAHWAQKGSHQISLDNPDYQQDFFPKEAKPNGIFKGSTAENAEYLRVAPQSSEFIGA
PROCEDURE_TEXT: PC-9 pEGFR AlphaLISA assay
APPLIED_CONDITIONS: 4 hours incubation, read-out: Phos EGFR PC9 IC50
pIC50: −log10 of the molar value.
pIC50 values by entry
MEASURE_NAME: pIC50

compound="COCCN1CCC(Oc2cc(-c3cnn(C)c3)cc3ncnc(Nc4ccc5ncsc5c4F)c23)CC1 [Example 316]" measured="7.30 to 8.00"
compound="COc1cc2ncnc(Nc3ccc4ncsc4c3)c2cc1N[C@H]1CCN(C)C[C@@H]1F [Example 393]" measured="≥ 8.00"
compound="CN1CCC2(COC2)[C@H](Oc2cc(-c3cnn(C)c3)cc3ncnc(Nc4ccc5ncsc5c4)c23)C1 (single isomer, unassigned) [Example 354]" measured="7.30 to 8.00"
compound="Cn1cc(-c2cc(OC3CC4(COC4)C3)c3c(Nc4ccc5ncsc5c4)ncnc3c2)cn1 [Example 38]" measured="≥ 8.00"
compound="CN1CC[C@@H](F)[C@@H](Oc2cc(-c3cnn(C)c3)cc3ncnc(Nc4ccc5ncsc5c4)c23)C1 (single isomer, unassigned) [Example 161]" measured="≥ 8.00"
compound="COc1cc2ncnc(Nc3ccc4ncsc4c3)c2cc1-c1cnn([C@H]2CCNC[C@@H]2F)c1 (racemic) [Example 168]" measured="7.30 to 8.00"
compound="COc1nn(C)cc1-c1cc(O[C@H]2COC[C@@H]2O)c2c(Nc3ccc4ncsc4c3)ncnc2c1 (single isomer, unassigned) [Example A49]" measured="7.30 to 8.00"
compound="COC[C@H](C)Oc1cc(N2CCN(C)CC2)cc2ncnc(Nc3ccc4ncsc4c3)c12 (single isomer, unassigned) [Example 206]" measured="7.30 to 8.00"
compound="C[C@@H](Oc1cc(N2CCN(C)CC2)cc2ncnc(Nc3ccc4ncsc4c3)c12)C1COC1 (single isomer, unassigned) [Example 97]" measured="7.30 to 8.00"
compound="Cn1cc(-c2cc(OCC(F)(F)F)c3c(Nc4ccc5ncsc5c4)ncnc3c2)cn1 [Example 50]" measured="7.30 to 8.00"
compound="Cn1cc(-c2cc(O[C@@H]3CNC[C@H](F)C3)c3c(Nc4ccc5ncsc5c4)ncnc3c2)cn1 (single isomer, unassigned) [Example 335]" measured="≥ 8.00"
compound="Cn1cc(-c2cc(OCCO)c3c(Nc4ccc5ncsc5c4)ncnc3c2)cn1 [Example 30]" measured="7.30 to 8.00"
compound="Cn1cc(-c2cc(O[C@H]3CCOC3)c3c(Nc4ccc5ncsc5c4)ncnc3c2)cn1 [Example 36]" measured="≥ 8.00"
compound="C[C@@H]1CN(c2cc(O[C@H](C)C3COC3)c3c(Nc4ccc5ncsc5c4F)ncnc3c2)CCN1 (single isomer, unassigned) [Example 101]" measured="7.30 to 8.00"
compound="CCC(=O)N1CCC(Oc2cc3c(Nc4ccc5ncsc5c4)ncnc3cc2OC)CC1 [Example 260]" measured="7.30 to 8.00"
compound="C[C@@H](Oc1cc(-c2cnn(C)c2)cc2ncnc(Nc3ccc4ncsc4c3F)c12)C1(C)COC1 (single isomer, unassigned) [Example 86]" measured="≥ 8.00"
compound="COc1nn(C)cc1-c1cc(O[C@H]2CCNC[C@@H]2F)c2c(Nc3ccc4ncsc4c3)ncnc2c1 (single isomer, unassigned) [Example 360]" measured="≥ 8.00"
compound="Cn1cc(-c2cc(O[C@H]3CC[C@@H](N)CC3)c3c(Nc4ccc5ncsc5c4)ncnc3c2)cn1 [Example A09]" measured="≥ 8.00"
compound="COC[C@H](C)Oc1cc(-c2cnn(C)c2)cc2ncnc(Nc3ccc4ncsc4c3F)c12 [Example 139]" measured="≥ 8.00"
compound="COC[C@H](C)Oc1cc(N2CCN(C)CC2)cc2ncnc(Nc3ccc4ncsc4c3)c12 (single isomer, unassigned) [Example 205]" measured="7.30 to 8.00"
compound="COc1cc2c(Nc3ccc4ncsc4c3F)ncnc2cc1-c1cnn(C)c1 [Example 265]" measured="≥ 8.00"
compound="C[C@@H](Oc1cc(-c2cnn(C)c2)cc2ncnc(Nc3ccc4ncsc4c3)c12)[C@H](C)N(C)C (single isomer, unassigned) [Example 144]" measured="7.30 to 8.00"
compound="COCCN1CCC(Oc2cc(-c3cn(C)nc3OC)cc3ncnc(Nc4ccc5ncsc5c4)c23)CC1 [Example 305]" measured="≥ 8.00"
compound="CCN1CC[C@H](Oc2cc(-c3cnn(C)c3)cc3ncnc(Nc4ccc5ncsc5c4)c23)C1=O (single isomer, unassigned) [Example 60]" measured="7.30 to 8.00"
compound="c1nc(Nc2ccc3ncsc3c2)c2c(OC3CCOCC3)cc(N3CC4CC(C3)O4)cc2n1 [Example 199]" measured="7.30 to 8.00"
compound="C[C@@H]1CN(c2cc(O[C@H](C)C3COC3)c3c(Nc4ccc5ncsc5c4)ncnc3c2)C[C@H](C)O1 [Example 193]" measured="≥ 8.00"
compound="CC(C)Oc1cc(O[C@H](C)C2COC2)c2c(Nc3ccc4ncsc4c3)ncnc2c1 [Example 125]" measured="7.30 to 8.00"
compound="[2H]C([2H])([2H])Oc1cc(O[C@H](C)C2COC2)c2c(Nc3ccc4ncsc4c3F)ncnc2c1 [Example 130]" measured="≥ 8.00"
